Attribution: the supplement of paper PMC8612539

Each record here notes measured minimum inhibitory concentration.
system: Histophilus somni; test: minimum inhibitory concentration (MIC); conditions: isolate (source animal id): 258
Give the quantity in µg/mL, number only.

1) CC[C@H]1OC(=O)C[C@@H](O)[C@H](C)[C@@H](O[C@@H]2O[C@H](C)[C@@H](O[C@H]3C[C@@](C)(O)[C@@H](O)[C@H](C)O3)[C@H](N(C)C)[C@H]2O)[C@@H](CC=O)C[C@@H](C)C(=O)/C=C/C(C)=C/[C@@H]1CO[C@@H]1O[C@H](C)[C@@H](O)[C@@H](OC)[C@H]1OC
8

In the following, a different molecule is considered.
# get_value(readout='minimum inhibitory concentration', item= CNC(C)C1CCC(N)C(OC2C(N)CC(N)C(OC3OCC(C)(O)C(NC)C3O)C2O)O1 (stereo not given) )
4
